Reported PBM binding z-score values follow for various sequences
- Tested on: THRa:RXRa (NR concentration 90 nM, RXRa partner concentration 90 nM)
- Method: PBM binding z-score (relative to random genomic background probes); higher = stronger binding; sequences stand for … in GC…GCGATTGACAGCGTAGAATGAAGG
Assay Metric: PBM binding z-score

| Sequence Input | Tested On | Assay Metric | Result Number |
| --- | --- | --- | --- |
| ACTACCAGGCCAAGTTTGGGTCACTCAAACAAAG | THRa:RXRa (NR concentration 90 nM, RXRa partner concentration 90 nM) | PBM binding z-score | 2.86 |
| AATACAGGGTCACTAGGACAGAGTAGGTACGAAT | THRa:RXRa (NR concentration 90 nM, RXRa partner concentration 90 nM) | PBM binding z-score | 3.64 |
| CCGACTGGGGCAGAAAGGTTAGCATACCATCCGG | THRa:RXRa (NR concentration 90 nM, RXRa partner concentration 90 nM) | PBM binding z-score | 0.31 |
| TCATATAGGTAAATGCTAGGTGAATGTCCGATCT | THRa:RXRa (NR concentration 90 nM, RXRa partner concentration 90 nM) | PBM binding z-score | 1.49 |
| CCGACTGGGGCAGAAAGGTTACCTTACCATCCGG | THRa:RXRa (NR concentration 90 nM, RXRa partner concentration 90 nM) | PBM binding z-score | 1.39 |
| TCCTGTAGATCAAAGGTTAAGAAAGCCGAAGCCT | THRa:RXRa (NR concentration 90 nM, RXRa partner concentration 90 nM) | PBM binding z-score | 1.24 |
| TCTAGTTGGGCAAAGGTCACACACTCGAAATGCG | THRa:RXRa (NR concentration 90 nM, RXRa partner concentration 90 nM) | PBM binding z-score | 3.99 |
| TCTATTAGTCGATTAGGGCAACCGAAACAGCGGA | THRa:RXRa (NR concentration 90 nM, RXRa partner concentration 90 nM) | PBM binding z-score | 0.811 |
| ATATGTAGGCTATCGGGTCATTCAGTTTGCGCAT | THRa:RXRa (NR concentration 90 nM, RXRa partner concentration 90 nM) | PBM binding z-score | 2.91 |
| TATATAGGGTCAAAGGCCAGAGTACGAATGTCGA | THRa:RXRa (NR concentration 90 nM, RXRa partner concentration 90 nM) | PBM binding z-score | 3.92 |
| CCTACTGGGCCAAAAAGATCATTGATGCCGATAA | THRa:RXRa (NR concentration 90 nM, RXRa partner concentration 90 nM) | PBM binding z-score | -0.348 |
| ACTAGCAGGCCAAGTTTGGTTCACTCAAACAAAG | THRa:RXRa (NR concentration 90 nM, RXRa partner concentration 90 nM) | PBM binding z-score | 0.405 |
| GCATATAGGTAATACAAGGTAAAAGTCCGATTGT | THRa:RXRa (NR concentration 90 nM, RXRa partner concentration 90 nM) | PBM binding z-score | 3.49 |
| AGTCAAAGTTCAGGACGAGTTAACGTAAAGCACG | THRa:RXRa (NR concentration 90 nM, RXRa partner concentration 90 nM) | PBM binding z-score | 2.57 |
| GCTAGTTGGTCAGTAAAAGGTCACACAGCGGTCG | THRa:RXRa (NR concentration 90 nM, RXRa partner concentration 90 nM) | PBM binding z-score | 3.67 |
| CGAACTAGGTCATGCAGGACAGTGAATACATTGA | THRa:RXRa (NR concentration 90 nM, RXRa partner concentration 90 nM) | PBM binding z-score | 2.96 |
| GGAACGAAGGCATTCGAGTTGATAGCATGGCGAT | THRa:RXRa (NR concentration 90 nM, RXRa partner concentration 90 nM) | PBM binding z-score | 0.655 |
